Provide the reported % Reduction of average current by 100 μM of each item.
Experimental target: SARS E protein ion channel (Severe acute respiratory syndrome coronavirus)
Sequence (P59637 whole entry, looked up): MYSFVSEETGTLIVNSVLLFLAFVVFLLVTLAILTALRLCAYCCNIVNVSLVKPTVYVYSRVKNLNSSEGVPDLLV
Format: biochemical, SARS-CoV
Where a name gives a salt, the structure may show the parent alone.
One number for each entry, in %.

Some compounds with known % Reduction of average current by 100 μM results, for comparison:
Compound: N/C(=N\C(=O)c1nc(Cl)c(N)nc1N)NCc1ccc(Cl)cc1Cl [2′4 DichloroBenzamil HCl]
Experimental target: SARS E protein ion channel (Severe acute respiratory syndrome coronavirus)
Result units: %
% Reduction of average current by 100 μM: 78
//
Compound: N=C(N)NC(=O)/C=C/c1cccc2ccccc12 [trans-3-(1-napthyl)acryloylguanidine]
Experimental target: SARS E protein ion channel (Severe acute respiratory syndrome coronavirus)
Result units: %
% Reduction of average current by 100 μM: 66

Provide reported % Reduction of average current by 100 μM for each item, in the same order as listed.
1. COc1ccc2cc(C(=O)NC(=N)N)ccc2c1 [6-methoxy-2-naphthoylguanidine]
2. O=C(CCc1ccccc1)NC(=Nc1ccccc1)NC(=O)CCc1ccccc1
3. N=C(N)NC(=O)/C=C/c1cccc(Br)c1 [(3-Bromocinnamoyl)guanidine]
4. NC(N)=NC(=O)c1nc(Cl)c(N2CCCCCC2)nc1N [5-(N,N-hexamethylene)amiloride]

*A*
[92, 88, 87, 91]

*Q* Which measured % Reduction of average current by 100 μM value corresponds to N=C(N)NC(=O)/C=C/c1ccccc1Br [(2-Bromocinnamoyl)guanidine] ?
*A* 88

* * *

Experimental target: Vpu protein (Human immunodeficiency virus type 1 group M subtype B, UniProt P05919)
Sequence (P05919 whole entry): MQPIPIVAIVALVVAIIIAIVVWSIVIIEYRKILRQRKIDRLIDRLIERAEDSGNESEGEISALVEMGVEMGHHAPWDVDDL
Test parameters: halo of growth score between zero and six; XL1-blue E. coli with pPL-Vpu, no adenine, 37° C.
Counter-ions that a name gives are not always drawn.
Can you tell me Vpu Inhibition (score/# of times tested) for the items I'm about to list?

Compound: NC(N)=NC(=O)c1nc(Cl)c(Nc2ccc(F)cc2)nc1N [5-(4-fluorophenyl)amiloride]
Reported: 0.4/6 score
//
Compound: CC(C)(C)c1ccccc1/C=C/C(=O)NC(=N)N
Reported: 2.13/2 score
//
Compound: NC(N)=NC(=O)c1nc(Cl)c(N2CCCCCC2)nc1N [5-(N,N-hexamethylene)amiloride]
Reported: 1.9/31 score

Fill in Vpu Inhibition (score/# of times tested) for each of the 8 compounds listed.
1. COc1ccccc1/C=C/C(=O)NC(=N)N
2. N=C(N)NC(=O)/C=C/c1ccc2c(c1)OCO2
3. N=C(N)NC(=O)/C=C/c1ccccc1Cl
4. N=C(N)NC(=O)/C=C/c1cccc(C(F)(F)F)c1
5. CN(C)c1nc(N)c(C(=O)N=C(N)N)nc1Cl [5-(N,N-Dimethyl)amiloride hydrochloride]
6. N=C(NC(=O)/C=C/c1ccccc1)Nc1ccccc1
7. N=C(N)NC(=O)/C=C/C=C/c1cccc(Br)c1
8. N=C(N)NC(=O)CCc1ccccc1

*A*
1. 1.7/4 score
2. 1.88/2 score
3. 4.0/4 score
4. 3.7/2 score
5. 0.1/2 score
6. 1.25/3 score
7. 2.5/2 score
8. 0.2/4 score

List Vpu Inhibition (score/# of times tested) for every entry below, keeping the order given.
1. N=C(N)NC(=O)/C=C/c1cccc(Cl)c1
2. N=C(N)NC(=O)/C=C/c1ccccc1[N+](=O)[O-]
3. N=C(N)NC(=O)/C=C/c1cccc(OC(F)(F)F)c1
4. N=C(N)NC(=O)/C=C/c1cccc(Br)c1
5. Cc1cccc(/C=C/C(=O)NC(=N)N)c1C

*A*
4.38/4 score
0.4/2 score
2.44/2 score
4.3/24 score
3.1/2 score

* * *

Experimental target: Vpu protein (Human immunodeficiency virus type 1 group M subtype B)
Test parameters: halo of growth score between zero and six; XL1-blue E. coli with pPL-Vpu, no adenine, 37° C.
Please go through the items and note down their Vpu Inhibition (score/# of times tested).

As a guide, the following entries are already answered.
Molecule: N=C(NC(=O)CCc1ccccc1)Nc1ccccc1
Reported: 2.21/3 score
//
Molecule: CCCCC/C=C/c1cccc(/C=C/C(=O)NC(=N)N)c1
Reported: 0.81/2 score
//
Molecule: O=C(CCc1ccccc1)NC(=Nc1ccccc1)NC(=O)CCc1ccccc1
Reported: 2.25/3 score
//
Molecule: N=C(N)NC(=O)/C=C/c1cccc(F)c1
Reported: 1.9/2 score
//
Molecule: NC(N)=NC(=O)/C=C/c1ccc(Br)cc1
Reported: 2.5/4 score
//
Molecule: CC(C)c1ccc(/C=C/C(=O)NC(=N)N)cc1
Reported: 1.4/2 score

Can you give me Vpu Inhibition (score/# of times tested) for all of these, one by one?
1. CC(C)c1cccc(/C=C/C(=O)NC(=N)N)c1.Cl
2. N=C(N)NC(=O)/C=C/c1cccc2ccccc12 [trans-3-(1-napthyl)acryloylguanidine]

*A*
1: 2.6/2 score; 2: 2.9/3 score

*Q* GET /values?readout=Vpu Inhibition (score/# of times tested)&item= `N=C(N)NC(=O)/C=C/c1ccc(F)c(F)c1`
*A* 2.06/2 score

* * *

Experimental target: Vpu protein (Human immunodeficiency virus type 1 group M subtype B)
Test parameters: halo of growth score between zero and six; XL1-blue E. coli with pPL-Vpu, no adenine, 37° C.
Measured endpoint: Vpu Inhibition (score/# of times tested)

Past entries and their recorded results:
Compound: CCN(c1nc(N)c(C(=O)N=C(N)N)nc1Cl)C(C)C [5-(N-Ethyl-N-isopropyl)amiloride, 5-(N-ethyl-N-isopropyl)amiloride]
Experimental target: Vpu protein (Human immunodeficiency virus type 1 group M subtype B)
Vpu Inhibition (score/# of times tested): 0.6/3 score
//
Compound: N=C(N)NC(=O)/C=C/c1ccc(-c2ccccc2)cc1
Experimental target: Vpu protein (Human immunodeficiency virus type 1 group M subtype B)
Vpu Inhibition (score/# of times tested): 1.1/2 score
//
Compound: N=C(N)NC(=O)/C=C/c1cccc(C2=CCCCC2)c1
Experimental target: Vpu protein (Human immunodeficiency virus type 1 group M subtype B)
Vpu Inhibition (score/# of times tested): 2.5/2 score

*Q* Which measured Vpu Inhibition (score/# of times tested) belongs to N=C(N)NC(=O)C1CC1c1ccccc1 (stereo not shown) , tested on Vpu protein (Human immunodeficiency virus type 1 group M subtype B)?
*A* 0.4/2 score

* * *

Provide the recorded SARS E protein Inhibition (score/# of times tested) for the entries that follow.
Experimental target: UniProt:P59637
Assay type: cell-based
Where a name gives a salt, the structure may show the parent alone.

Consider the worked cases shown below.
Compound: N=C(N)NC(=O)/C=C/c1cccc([N+](=O)[O-])c1
Reported: 1.51/2 score

Compound: N=C(N)NC(=O)/C=C/c1c(Cl)cccc1Cl
Reported: 2.25/1 score

Batch request: SARS E protein Inhibition (score/# of times tested) for each of the following compounds.
1. N=C(N)NC(=O)Cc1cccc2ccccc12
2. N/C(=N\C(=O)/C=C/c1ccccc1)NC(=O)c1ccccc1

*A*
1.50/1 score
0.13/2 score

Count: 5. Required value per item: SARS E protein Inhibition (score/# of times tested).
1. N=C(N)NC(=O)/C=C/c1ccco1
2. NC(N)=NC(=O)c1ccc2ccccc2c1
3. N=C(N)NC(=O)c1ccc2ccccc2c1Br
4. NC(N)=NC(=O)c1nc(I)c(N)nc1N [6-Iodoamiloride]
5. N=C(N)NC(=O)/C=C/c1cccc(OC(F)(F)F)c1

*A*
1. 0.82/2 score
2. 1.38/2 score
3. 0.25/1 score
4. 1.75/2 score
5. 2.71/1 score

Give me SARS E protein Inhibition (score/# of times tested) for each of these compounds, listed below.
1. CN(C)c1nc(N)c(C(=O)N=C(N)N)nc1Cl [5-(N,N-Dimethyl)amiloride hydrochloride]
2. N=C(N)NC(=O)/C=C/c1ccccc1F
3. N=C(N)NC(=O)/C=C/c1ccc(Cl)cc1Cl
4. Cl.N=C(N)NC(=O)/C=C/c1ccccc1 [cinnamoylguanidine hydrochloride]
5. NC(N)=NC(=O)c1ccc2ccccc2n1
6. NC(N)=NC(=O)/C=C/C=C/c1ccccc1

*A*
1.38/2 score
0.63/1 score
0.63/2 score
2.50/1 score
0.41/1 score
0.44/2 score

* * *

Experimental target: 229E-CoV E-protein (Human coronavirus 229E)
Sequence (P19741 whole entry): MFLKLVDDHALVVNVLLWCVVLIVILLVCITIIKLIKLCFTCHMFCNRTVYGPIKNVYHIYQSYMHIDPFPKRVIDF
Test description: Bacterial bio-assay for 229E-CoV E-protein
Test parameters: halo of growth score; E. coli expressing E protein at 37° C.
Where a name gives a salt, the structure may show the parent alone.
For each entry below, report its 229E E protein Inhibition (score) value.
Enter the number, and then the unit.

Worked examples, 5 compounds total:
Compound: NC(N)=NC(=O)c1ccc(Oc2ccccc2)cc1
Experimental target: 229E-CoV E-protein (Human coronavirus 229E)
229E E protein Inhibition (score): 2.3 score

Compound: COc1ccccc1/C=C/C(=O)NC(=N)N
Experimental target: 229E-CoV E-protein (Human coronavirus 229E)
229E E protein Inhibition (score): 1.1 score

Compound: CCOc1cccc(/C=C/C(=O)NC(=N)N)c1
Experimental target: 229E-CoV E-protein (Human coronavirus 229E)
229E E protein Inhibition (score): 0.3 score

Compound: N=C(N)NC(=O)/C=C/c1ccc(C(F)(F)F)cc1
Experimental target: 229E-CoV E-protein (Human coronavirus 229E)
229E E protein Inhibition (score): 2.3 score

Compound: N=C(N)NC(=O)/C=C/c1ccccc1C(F)(F)F
Experimental target: 229E-CoV E-protein (Human coronavirus 229E)
229E E protein Inhibition (score): 1.5 score

Batch: 229E E protein Inhibition (score) for all items listed.
1. N=C(N)NC(=O)/C=C/c1cccc(C(F)(F)F)c1
2. NC(N)=NC(=O)/C=C/C=C/c1ccccc1
3. O=C(CCc1ccccc1)NC(=Nc1ccccc1)NC(=O)CCc1ccccc1
4. N=C(N)NC(=O)Cc1ccc2ccccc2c1
5. COc1cccc(/C=C/C(=O)NC(=N)N)c1

*A*
["2.3 score", "1.8 score", "0.1 score", "0.1 score", "1.4 score"]

Would you be so kind as to report 229E E protein Inhibition (score) for each listed record?
1. N=C(N)NC(=O)/C=C/c1ccccc1Br
2. CC(C)c1cccc(/C=C/C(=O)NC(=N)N)c1.Cl
3. NC(N)=NC(=O)c1ccc2cc(C(=O)N=C(N)N)ccc2c1

*A*
1: 0.9 score; 2: 4.0 score; 3: 0.3 score

Lab note: each compound below needs its 229E E protein Inhibition (score) filled in.
1. CCc1ccccc1/C=C/C(=O)NC(=N)N
2. N=C(N)NC(=O)/C=C/c1cccc(F)c1

*A*
1. 0.8 score
2. 0.5 score

Answer for every listed entry: what is its 229E E protein Inhibition (score)? The entries follow.
1. N=C(N)NC(=O)/C=C/c1ccc(-c2ccccc2)cc1
2. Cl.N=C(N)NC(=O)/C=C/c1ccccc1 [cinnamoylguanidine hydrochloride]
3. N=C(N)NC(=O)/C=C/c1cccc(OC(F)(F)F)c1
4. CN(C)c1nc(N)c(C(=O)N=C(N)N)nc1Cl [5-(N,N-Dimethyl)amiloride hydrochloride]
5. Cc1cc(C)c(/C=C/C(=O)NC(=N)N)c(C)c1
6. N=C(NC(=O)CCc1ccccc1)Nc1ccccc1

*A*
1.0 score
0.5 score
4.1 score
1.3 score
0.9 score
0.1 score
